- Tgt: androgen receptor (AR) (Homo sapiens)
- Construct: AR expressed transiently from plasmid pSVAR0 (known as a human full-length AR expression vector)
- Sequence (P10275 1-920): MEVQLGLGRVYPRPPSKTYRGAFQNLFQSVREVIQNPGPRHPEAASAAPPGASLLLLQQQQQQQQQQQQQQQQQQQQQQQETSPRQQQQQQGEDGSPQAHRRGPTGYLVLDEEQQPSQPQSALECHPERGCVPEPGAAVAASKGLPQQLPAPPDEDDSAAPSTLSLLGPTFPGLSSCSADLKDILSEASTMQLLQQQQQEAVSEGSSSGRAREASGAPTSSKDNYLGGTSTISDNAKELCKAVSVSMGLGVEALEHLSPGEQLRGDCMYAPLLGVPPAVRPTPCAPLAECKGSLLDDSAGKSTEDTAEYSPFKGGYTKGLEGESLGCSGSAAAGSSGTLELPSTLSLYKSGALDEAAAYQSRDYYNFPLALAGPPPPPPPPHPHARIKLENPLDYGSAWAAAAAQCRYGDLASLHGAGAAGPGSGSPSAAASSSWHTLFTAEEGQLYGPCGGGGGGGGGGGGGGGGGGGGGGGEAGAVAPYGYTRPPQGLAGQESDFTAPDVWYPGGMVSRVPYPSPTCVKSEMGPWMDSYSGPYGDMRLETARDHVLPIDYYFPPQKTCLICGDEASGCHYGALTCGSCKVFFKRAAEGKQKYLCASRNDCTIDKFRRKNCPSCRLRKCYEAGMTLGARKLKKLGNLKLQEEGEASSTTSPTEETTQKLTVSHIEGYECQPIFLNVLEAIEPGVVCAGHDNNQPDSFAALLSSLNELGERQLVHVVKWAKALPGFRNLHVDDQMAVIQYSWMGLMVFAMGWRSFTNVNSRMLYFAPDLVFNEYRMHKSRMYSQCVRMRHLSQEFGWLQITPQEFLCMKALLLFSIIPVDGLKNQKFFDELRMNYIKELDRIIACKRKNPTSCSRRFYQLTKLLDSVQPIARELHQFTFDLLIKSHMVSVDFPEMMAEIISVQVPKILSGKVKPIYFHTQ
- Assay Protocol: MMTV-luciferase reporter gene agonist assay, transfected CV-1 cells
- Assay type: cell-based
- Particulars: agonist mode, […] h, […] °C, unreliable
Reported Endpoint: Agonist activity in CV-1 / EC50

Task item: Need Agonist activity in CV-1 / EC50, item C[C@](O)(COc1ccc(C#N)cc1)C(=O)Nc1cccc(S(F)(F)(F)(F)F)c1 [12a]
Reply: 1.508 ± 0.4299 µM

Task item: Then what about the molecule C[C@](O)(COc1ccc(Cl)cc1)C(=O)Nc1cccc(S(F)(F)(F)(F)F)c1 [12c] ?
Reply: 1.282 ± 0.0792 µM

Task item: Then what about the molecule COc1ccc(OC[C@](C)(O)C(=O)Nc2ccc(S(F)(F)(F)(F)F)cc2)c(F)c1 [16g] ?
Reply: 2.144 ± 0.6944 µM

Task item: Then what about the molecule CCC(=O)c1ccc(OC[C@](C)(O)C(=O)Nc2cccc(S(F)(F)(F)(F)F)c2)cc1 [12f] ?
Reply: 12.7335 ± 2.1447 µM
